testSystem: T1, human IL-21R extracellular domain His-Flag fusion protein (human, UniProt Q9HBE5 20-232)
T1 construct: Biotinylated in the HTRF screen; also called hIL-21R-H/F; human IL-21R-H/F
T1 sequence (Q9HBE5 20-232): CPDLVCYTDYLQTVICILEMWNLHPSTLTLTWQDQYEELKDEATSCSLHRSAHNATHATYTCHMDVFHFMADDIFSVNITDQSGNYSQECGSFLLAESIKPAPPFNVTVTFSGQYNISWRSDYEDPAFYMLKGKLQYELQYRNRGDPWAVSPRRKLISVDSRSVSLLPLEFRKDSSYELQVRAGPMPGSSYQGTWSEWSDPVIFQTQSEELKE
methodDescription: SPR, Ab captured on anti-human IgG, replicate experiment
Some binders, each annotated with its measured kon.
Mention the unit after the number when you answer.

binder	kon
AbU (antibody, human IgG1, V domains shown, CDR3 graft, residue limits derived as for m29; also called VHP/VL25; VHPTM/VL25) VH: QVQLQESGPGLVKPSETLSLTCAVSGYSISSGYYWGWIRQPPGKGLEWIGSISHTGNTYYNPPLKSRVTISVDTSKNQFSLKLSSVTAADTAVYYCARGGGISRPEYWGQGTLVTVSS VL: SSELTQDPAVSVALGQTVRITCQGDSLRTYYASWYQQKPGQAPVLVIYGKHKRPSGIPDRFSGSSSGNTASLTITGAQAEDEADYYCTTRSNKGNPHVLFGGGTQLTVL	238000 M⁻¹ s⁻¹
AbS (antibody, V domains shown, CDR3 graft, residue limits derived as for m29; also called VHP/VL6; VHPTM/VL6) VH: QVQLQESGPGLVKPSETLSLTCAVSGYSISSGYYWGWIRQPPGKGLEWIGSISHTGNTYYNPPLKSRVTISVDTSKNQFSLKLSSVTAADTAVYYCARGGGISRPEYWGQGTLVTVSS VL: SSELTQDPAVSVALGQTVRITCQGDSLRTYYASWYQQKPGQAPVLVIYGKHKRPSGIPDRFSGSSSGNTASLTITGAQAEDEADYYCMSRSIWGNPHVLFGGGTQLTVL	202000 M⁻¹ s⁻¹
AbT (antibody, human IgG1, V domains shown, CDR3 graft, residue limits derived as for m29; also called VHP/VL9; VHPTM/VL9) VH: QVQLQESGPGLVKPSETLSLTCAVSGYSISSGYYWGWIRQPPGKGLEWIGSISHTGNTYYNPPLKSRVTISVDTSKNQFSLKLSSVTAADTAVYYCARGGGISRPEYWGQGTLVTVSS VL: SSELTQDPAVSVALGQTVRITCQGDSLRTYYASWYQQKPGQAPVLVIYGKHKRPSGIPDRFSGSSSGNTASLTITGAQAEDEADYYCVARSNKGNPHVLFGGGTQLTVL	273000 M⁻¹ s⁻¹
AbP (antibody, human IgG1, V domains shown, CDR3 graft, residue limits derived as for m29; also called VHP/VL20; VHPTM/VL20) VH: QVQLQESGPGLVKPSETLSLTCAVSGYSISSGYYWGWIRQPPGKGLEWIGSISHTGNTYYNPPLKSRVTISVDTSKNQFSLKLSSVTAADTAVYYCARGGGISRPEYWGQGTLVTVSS VL: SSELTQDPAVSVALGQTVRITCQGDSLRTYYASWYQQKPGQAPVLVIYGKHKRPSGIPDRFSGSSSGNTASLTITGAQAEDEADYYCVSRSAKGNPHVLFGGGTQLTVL	233000 M⁻¹ s⁻¹
parental 18A5 antibody (antibody, V domains shown, also called 18A5 IgG) VH: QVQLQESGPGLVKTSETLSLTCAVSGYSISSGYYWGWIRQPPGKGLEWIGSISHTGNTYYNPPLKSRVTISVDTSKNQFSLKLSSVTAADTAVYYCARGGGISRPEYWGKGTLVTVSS VL: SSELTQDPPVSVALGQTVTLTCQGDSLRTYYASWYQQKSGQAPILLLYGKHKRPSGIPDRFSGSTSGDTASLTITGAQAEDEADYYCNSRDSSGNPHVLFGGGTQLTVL	304000 M⁻¹ s⁻¹

Moving on to the next binder.
Looking up AbR (antibody, human IgG1, V domains shown, CDR3 graft, residue limits derived as for m29; also called VH3/VL18; VH3DM/VL18) VH: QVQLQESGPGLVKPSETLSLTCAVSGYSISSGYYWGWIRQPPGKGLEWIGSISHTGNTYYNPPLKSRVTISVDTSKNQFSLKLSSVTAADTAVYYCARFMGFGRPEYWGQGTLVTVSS VL: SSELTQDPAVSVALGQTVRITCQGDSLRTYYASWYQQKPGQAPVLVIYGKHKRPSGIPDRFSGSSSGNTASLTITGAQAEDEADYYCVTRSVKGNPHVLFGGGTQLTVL , I see its kon listed as 248000 M⁻¹ s⁻¹
